Entries annotated with measured AC50
Biological target: Cytochrome P450 3A4 (Homo sapiens, UniProt P08684);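 note: confirmatory qHTS run detecting inhibitors and substrates of CYP3A4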
Sequence (P08684 whole entry): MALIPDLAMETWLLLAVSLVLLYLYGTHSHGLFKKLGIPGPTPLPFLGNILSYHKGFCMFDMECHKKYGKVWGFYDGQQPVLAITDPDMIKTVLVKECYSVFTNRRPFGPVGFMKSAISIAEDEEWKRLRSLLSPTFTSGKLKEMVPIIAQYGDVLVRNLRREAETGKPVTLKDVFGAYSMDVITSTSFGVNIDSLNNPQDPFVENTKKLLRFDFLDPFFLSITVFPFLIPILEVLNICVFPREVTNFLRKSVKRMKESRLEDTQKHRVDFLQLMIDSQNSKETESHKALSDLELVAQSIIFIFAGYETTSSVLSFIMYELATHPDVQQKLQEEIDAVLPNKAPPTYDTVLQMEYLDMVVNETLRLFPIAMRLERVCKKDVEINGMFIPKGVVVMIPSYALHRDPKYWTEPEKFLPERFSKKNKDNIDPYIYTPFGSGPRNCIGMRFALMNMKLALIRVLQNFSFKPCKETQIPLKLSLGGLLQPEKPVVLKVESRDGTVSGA
Settings: Potency

Oc1ccc(C2Oc3cc(O)cc(O)c3CC2O)cc1 (centres undefined)    12.6 µM (inconclusive)
Cn1c(N)c(C(=O)COC(=O)c2cc(-c3ccccc3)nc3ccccc23)c(=O)n(Cc2ccccc2)c1=O    12.6 µM (inconclusive)
CCCCCCN(C(=O)CCCCCN1C(=O)NC(c2ccc(-c3ccccc3)cc2)C(C(=O)OCc2ccccc2)=C1C)C(C(=O)NCCCC)c1ccccn1 (centres undefined)    1 µM (inconclusive)

Now, please, on to the next compound.
Query: If you can, please state the reported AC50 value of COC(=O)CC1[C@@]2(C)C[C@@]34OC5(C)OC6(CC[C@@]7(C)C(c8ccoc8)OC(=O)C(C(C)=O)C7[C@]6(O5)C(O)[C@@]3(O)C2O)[C@]14C (some centres undefined) .
Response: 39.8 µM (inconclusive)
